Experiment: 14C assay with IPTG-induced recombinant E. coli cells (14CO2 capture from [14C]-carboxyl-labeled dicamba)
Settings: IPTG-induced recombinant E. coli cells; [14C]-carboxyl-labeled dicamba; 14CO2 capture
readout.kind: Dicamba Decarboxylase Activity

88 (protein, listed as Starkeya novella) MARKIALEEHFTTPELAGKYVARPTQSDALFADIERRLADFDELRLEMMDRAEIDLMVLSVTTPGVQGVRDTGEAIRLARGANDFLAREVQKRPSRYAGFAHLAMQDAEAAATELERAVRELGFRGALINGQTNGHYLDEDQYAPFWERVQELDVPVYLHPGNMADSPAMFAHRPELGGPIWAWTAETAAHALRLVFGGTFTRFPGAKVILGHMGETLPFLLWRLDSRREFDLGEKLAPDALPSAIIKRNIAVTTSGVCDPAPLVAALQALSDDNVMFSVDYPYEDPQLASKFIETAPIGEETRAKVCHGNAERLLGL    High
17 (protein, Aspergillus niger) MARGKIALEEAFEVKGMDEEIDAQAALYIAPKDVERYKRQIVSITDERLQLSDQNGIGYSILSLTVPGIQGITDKDKAEKRARDVNNYIHDQIKDHRDRLGAFAALSMHDPRQAGHELRRCVKELGFHGALLNDVQHTGEGDDDQPLFYDQPDYDEFWRVAVELDVPVYLHPAAPLRDTLIYKQSYEDRKYLVGPPQSYCNGVALHLMGIIVNGVFDRFPNLKVIVGHMGERIPFDFWRMDHWVKGVTRPLAEKNGDTVCQKEPLYYFKRNIYITTSGHFSTQNLRYLYEWLGDERMMFSVDFPYERMEHGCQWYDDDAEKIKEALGGRDGYLRVGRDNARRLFKLTKFKDCDAV    Low
47 (protein, listed as Serratia odorifera) MAKIICLEEHTLDKALVMASMPAALAQAPFLSDWGKTITDGNLPDRSRPQIEKNDLINVKGADIGRGRLDDMDEAGITMQVLSVGGFPHLISAAEGVDLNRAANDRLANAVNAHPDRFAAFATLPWAQPDAAEKELERAVKELGFKGALLNGRPSIHFLDHPDYDGLLARFNALGVPLYLHPGLPVRSVQQAYYSGFSDEVTARLSMFGWGWHHEAGIHLLRLILSGAFDKYPNLQVISGHWGEMLPFWLQRLDDSLPQAATGLRRTITQTFREQVYVTPSGMLTLPHFQFIYALLGAERILFSVDYPYQTLDGVKAFIQSLPVPEEAKEAIAFRNAERLFGLTS    High
35 (protein, Burkholderia sp) MAFKASRKIALEEHFAIDATVQDSAGFVPPSYWAELKRRLLDIHDRRIDEMDRNGVELMVLSLNAPTVQAVPNIKDAYDLSRRANDFLAEQIVKRPERFKGFAALPMQSPDLAARELERCVKELNFVGALVNGFSQVEESGTALYYDLPQYRQFWSVVQALDVPFYLHPRNPLPAHAPIYEGHPWLLGPTWAFGQETAVHALRLMGSGLFDEYPELKIILGHMGEGLPYSMWRIDNRNAWVETQPNYPAKKRIAEYFHKNFWLTTSGNFRTQTLIDAMLEIGSDRILFSTDWPFENVDHAAQWFDDAAISENDRIKIARTNAARLFKLEP    High

src = patent US20140287419A1
